# Protocol Details: AUC (0 to infinity) in Sprague-Dawley rat at 1 mg/kg, iv by LC/MS/MS analysis
# Format: ADME, organism-based
# Parameters: dose 1 mg/kg, route intravenous, time infinity
# Measurement Parameters: in vivo
Quantity: AUC(0-inf) (ng·h/mL)
State just the number; it will be interpreted in ng·h/mL.

Item: Cc1noc(C)c1-c1cc2c(c3c1CCC3)NC(C)(C)C(=O)C2(C)C | AUC(0-inf): 460

====

# Protocol Details: Unbound brain to plasma concentration ratio in Sprague-Dawley rat at 30 mg/kg, po measured at 1 hr by LC/MS/MS analysis
# Format: ADME, organism-based
# Measurement Parameters: brain and plasma, read-out: K(p,uu,brain)
Quantity: Kp uu at 1 h

Item: Cc1noc(C)c1-c1cc2c(c3c1CCC3)NC(C)(C)C(=O)C2(C)C | Kp uu at 1 h: 1.8
